# Tgt: Gal3S(b1-4)GlcNAc6S
# Run Description: glycan array binding signal (z-score within array); higher = stronger binding
# Setup Conditions: glycan notation: IUPAC condensed, linker removed
Many of the other results were omitted from the sample, so the strongest signals are more common in it than they were.
The label depends only on glycan array binding signal (z-score): class 1 if it is at least 3, class 0 if it is smaller.

MAL-II (Maackia amurensis), P93248 (protein) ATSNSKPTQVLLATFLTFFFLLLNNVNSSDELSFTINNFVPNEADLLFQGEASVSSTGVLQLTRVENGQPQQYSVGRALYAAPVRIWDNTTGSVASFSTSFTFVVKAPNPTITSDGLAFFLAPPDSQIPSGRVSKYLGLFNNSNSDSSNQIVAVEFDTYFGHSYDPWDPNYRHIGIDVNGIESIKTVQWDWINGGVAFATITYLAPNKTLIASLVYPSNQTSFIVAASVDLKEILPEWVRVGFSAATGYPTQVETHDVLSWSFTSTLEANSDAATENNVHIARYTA    class 1
CCL2 (Coprinopsis cinerea), B3GA02 (protein) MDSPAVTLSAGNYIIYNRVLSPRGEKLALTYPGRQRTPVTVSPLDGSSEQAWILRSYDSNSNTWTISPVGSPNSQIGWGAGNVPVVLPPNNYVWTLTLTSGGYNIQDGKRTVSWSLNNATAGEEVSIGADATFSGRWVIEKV    class 0
NKp30 (Homo sapiens), O14931 (protein) LWVSQPPEIRTLEGSSAFLPCSFNASQGRLAIGSVTWFRDEVVPGKEVRNGTPEFRGRLAPLASSRFLHDHQAELHIRDVRGHDASIYVCRVEVLGLGVGTGNGTRLVVEKEHPQLG    class 0
EEA (Euonymus europaeus) (protein) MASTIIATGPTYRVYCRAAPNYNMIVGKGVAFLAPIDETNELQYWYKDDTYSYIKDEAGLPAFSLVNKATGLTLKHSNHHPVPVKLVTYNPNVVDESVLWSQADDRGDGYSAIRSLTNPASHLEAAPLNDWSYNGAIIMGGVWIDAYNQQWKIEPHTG    class 0

Query: Please indicate if the recorded glycan array binding signal (z-score) for HMGB1 (Homo sapiens), P09429 (protein) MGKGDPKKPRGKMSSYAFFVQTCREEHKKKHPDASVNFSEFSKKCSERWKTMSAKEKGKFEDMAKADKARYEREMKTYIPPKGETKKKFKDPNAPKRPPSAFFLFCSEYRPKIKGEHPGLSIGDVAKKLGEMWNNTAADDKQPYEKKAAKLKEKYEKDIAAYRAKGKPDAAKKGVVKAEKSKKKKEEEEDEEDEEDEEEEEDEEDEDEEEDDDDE meets or exceeds 3.
Reply: class 1
